# systemUnderTest: human PDE9A2 (Homo sapiens)
# Construct: made in house; host or cells: Sf9 insect cells (infected; crude lysate used as enzyme source)
# methodDescription: PDE9A2 enzymatic activity assay (scintillation proximity assay)
# Format: biochemical
# conditionSet: at 10 μM; read-out: % Inhibition of PDE 9A2
measurementName: inhibition at 10 µM (%)

> print(dat)
                                   compound      measurementname  resultnumber
1  CC(C)(C)OC(=O)NC1CCCC(n2ncc3c(=O)[nH]c(Cc4ccccc4OC(F)(F)F)nc32)C1 (mixture of isomers) [Example 18]  inhibition at 10 µM           100
2  O=c1[nH]c(Cc2cc(F)ccc2-c2cccnc2)nc2c1cnn2C1CCC(F)(F)CC1 [Example 66]  inhibition at 10 µM           100
3  COc1cccnc1Cc1nc2c(cnn2C2CCC(F)(F)CC2)c(=O)[nH]1 [Example 100]  inhibition at 10 µM            95
4  O=c1[nH]c(Cc2ccccc2-c2ccccn2)nc2c1cnn2C1CCC(F)(F)CC1 [Example 91]  inhibition at 10 µM            95
5  O=c1[nH]c(Cc2cc(F)ccc2-c2ccnc(F)c2)nc2c1cnn2C1CCC(F)(F)CC1 [Example 72-4]  inhibition at 10 µM           101
6  O=c1[nH]c(Cc2ccccc2-n2cccn2)nc2c1cnn2C1CCC(F)(F)CC1 [Example 95]  inhibition at 10 µM            97
7  O=c1[nH]c(Cc2ccccc2-c2cncnc2)nc2c1cnn2C1CCC(F)(F)CC1 [Example 76]  inhibition at 10 µM            99
8  COc1cc(-c2ccccc2Cc2nc3c(cnn3C3CCC(F)(F)CC3)c(=O)[nH]2)ccn1 [Example 55]  inhibition at 10 µM           100

* * *

# systemUnderTest: human PDE9A2 (Homo sapiens)
# Construct: made in house; host or cells: Sf9 insect cells (infected; crude lysate used as enzyme source)
# methodDescription: PDE9A2 enzymatic activity assay (scintillation proximity assay)
# Format: biochemical
# conditionSet: at 10 μM; read-out: % Inhibition of PDE 9A2
measurementName: inhibition at 10 µM (%)

> print(dat)
                                   molecule              systemundertest  resultnumber
1  O=C(Cc1ccccc1Cc1nc2c(cnn2C2CCC(F)(F)CC2)c(=O)[nH]1)N1CCOCC1 [Example 82]  human PDE9A2 (Homo sapiens)            91
2  COc1ccc(F)cc1Cc1nc2c(cnn2C2CCC(F)(F)CC2)c(=O)[nH]1 [Example 48-4]  human PDE9A2 (Homo sapiens)            99
3  O=c1[nH]c(CC2CCC2)nc2c1cnn2C1CCC(F)CC1 (centres unmarked) [Example 111]  human PDE9A2 (Homo sapiens)            74
4  CCOC(=O)NC1CCCC(n2ncc3c(=O)[nH]c(Cc4ccccc4OC(F)(F)F)nc32)C1 (mixture of isomers) [Example 19]  human PDE9A2 (Homo sapiens)           100
5  O=c1[nH]c(Cc2ccccc2I)nc2c1cnn2C1CCC(F)(F)CC1 [Example 36]  human PDE9A2 (Homo sapiens)            99
6  COc1cncc(-c2cc(F)ccc2Cc2nc3c(cnn3C3CCC(F)(F)CC3)c(=O)[nH]2)c1 [Example 67]  human PDE9A2 (Homo sapiens)            99
7  Cc1cccnc1Cc1nc2c(cnn2C2CCC(F)CC2)c(=O)[nH]1 (centres unmarked) [Example 110]  human PDE9A2 (Homo sapiens)            95
8  O=c1[nH]c(Cc2cc(F)ccc2-c2ccccn2)nc2c1cnn2C1CCC(F)(F)CC1 [Example 90]  human PDE9A2 (Homo sapiens)            97

* * *

# systemUnderTest: human PDE9A2 (Homo sapiens)
# Construct: made in house; host or cells: Sf9 insect cells (infected; crude lysate used as enzyme source)
# methodDescription: PDE9A2 enzymatic activity assay (scintillation proximity assay)
# Format: biochemical
# conditionSet: at 10 μM; read-out: % Inhibition of PDE 9A2
measurementName: inhibition at 10 µM (%)

> print(dat)
                                   compound  unitsymbol  resultnumber
1  CCOC(=O)NC1CCCC(n2ncc3c(=O)[nH]c(CC4CCCC4)nc32)C1 (mixture of isomers)           %           103
2  O=c1[nH]c(C(F)c2ccccc2-n2cccn2)nc2c1cnn2C1CCC(F)(F)CC1 (racemic) [Example 88]           %            93
3  O=c1[nH]c(CC2CCCC2)nc2c1cnn2C1CCC(F)(F)CC1           %           104
4  C[C@@H]1CC(Cc2nc3c(cnn3C3CCC(F)(F)CC3)c(=O)[nH]2)C(=O)N1C (mixture of isomers)           %            87

* * *

# systemUnderTest: human PDE9A2 (Homo sapiens)
# Construct: crude lysate used as enzyme source)
# methodDescription: PDE9A2 enzymatic activity assay (scintillation proximity assay)
# conditionSet: specific IC50 value is within the given range
measurementName: IC50

Guide cases for IC50, answers given:
> print(dat)
                                   compound          result
1  COc1cncc(-c2cc(F)ccc2Cc2nc3c(cnn3C3CCC(F)(F)CC3)c(=O)[nH]2)c1     1 to 100 nM
2  O=c1[nH]c(CC2CCC(F)(F)CC2)nc2c1cnn2C1CCC(F)(F)CC1  101 to 1500 nM
3  O=c1[nH]c(CC2CCOC2)nc2c1cnn2C1CCC(F)(F)CC1 (centres unmarked)  101 to 1500 nM

Supply recorded IC50 for CCCc1nc2c(cnn2C2CCC(F)(F)CC2)c(=O)[nH]1 here.
1 to 100 nM

Supply recorded IC50 for Nc1ccccc1Cc1nc2c(cnn2C2CCC(F)(F)CC2)c(=O)[nH]1 here.
1 to 100 nM

Supply recorded IC50 for O=c1[nH]c(Cc2ncccc2-n2cccn2)nc2c1cnn2C1CCC(F)(F)CC1 here.
1 to 100 nM

Supply recorded IC50 for O=c1[nH]c(CC2CC2)nc2c1cnn2C1CCCC(c2ccccc2)C1 (mixture of isomers) here.
101 to 1500 nM

Supply recorded IC50 for O=c1[nH]c(Cc2ccccc2OC(F)(F)F)nc2c1cnn2C1CCC(F)(F)CC1 here.
1 to 100 nM

* * *

# systemUnderTest: human PDE9A2 (Homo sapiens)
# Construct: made in house; host or cells: Sf9 insect cells (infected; crude lysate used as enzyme source)
# methodDescription: PDE9A2 enzymatic activity assay (scintillation proximity assay)
# Type: biochemical
# conditionSet: at 10 μM; read-out: % Inhibition of PDE 9A2
measurementName: inhibition at 10 µM (%)

> print(dat)
                                   molecule  resultnumber
1  O=c1[nH]c(Cc2ccccc2Br)nc2c1cnn2C1CCC(F)(F)CC1            98
2  N#Cc1ccc(-c2ccccc2Cc2nc3c(cnn3C3CCC(F)(F)CC3)c(=O)[nH]2)cn1           102
3  O=c1[nH]c(Cc2ccccn2)nc2c1cnn2C1CCC(F)(F)CC1            98
4  O=c1[nH]c(CC2CCCC2)nc2c1cnn2C1CCCC1O (mixture of isomers)           102
5  O=c1[nH]c(Cc2ccccn2)nc2c1cnn2C1CCC(F)CC1 (centres unmarked)            93
6  O=c1[nH]c(Cc2ccccc2-n2cccc2)nc2c1cnn2C1CCC(F)(F)CC1            97
7  CC(Cc1nc2c(cnn2C2CCC(F)(F)CC2)c(=O)[nH]1)C(F)(F)F (racemic) [Example 30]            98
8  NC(=O)c1ccc(-c2ccc(F)cc2Cc2nc3c(cnn3C3CCC(F)(F)CC3)c(=O)[nH]2)cn1            99

* * *

# systemUnderTest: human PDE9A2 (Homo sapiens, UniProt O76083)
# Construct: made in house; host or cells: Sf9 insect cells (infected; crude lysate used as enzyme source)
# Sequence (O76083 1-533 isoform O76083-2): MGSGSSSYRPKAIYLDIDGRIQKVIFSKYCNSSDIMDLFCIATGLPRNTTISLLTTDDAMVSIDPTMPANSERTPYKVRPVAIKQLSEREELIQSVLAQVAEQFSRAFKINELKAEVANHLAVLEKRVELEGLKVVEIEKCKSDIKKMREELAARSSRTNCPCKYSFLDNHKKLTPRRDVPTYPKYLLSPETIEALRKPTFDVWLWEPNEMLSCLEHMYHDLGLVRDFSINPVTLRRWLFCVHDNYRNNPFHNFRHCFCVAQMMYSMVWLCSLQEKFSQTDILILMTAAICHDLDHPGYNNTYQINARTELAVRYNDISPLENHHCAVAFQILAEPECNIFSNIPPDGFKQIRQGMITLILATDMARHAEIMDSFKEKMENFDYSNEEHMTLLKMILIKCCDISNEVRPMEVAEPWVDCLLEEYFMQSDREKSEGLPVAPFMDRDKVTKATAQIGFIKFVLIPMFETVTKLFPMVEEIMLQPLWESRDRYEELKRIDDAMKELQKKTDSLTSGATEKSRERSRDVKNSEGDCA
# methodDescription: PDE9A2 enzymatic activity assay (scintillation proximity assay)
# Assay type: biochemical
# conditionSet: at 10 μM; read-out: % Inhibition of PDE 9A2
measurementName: inhibition at 10 µM (%)

> print(dat)
                                    molecule      measurementname  unitsymbol  resultnumber
 1   CCCc1nc2c(cnn2C2CCC(F)(F)CC2)c(=O)[nH]1  inhibition at 10 µM           %           104
 2  O=c1[nH]c(Cc2ncccc2Br)nc2c1cnn2C1CCC(F)(F)CC1  inhibition at 10 µM           %            98
 3  O=c1[nH]c(Cc2cccc(Cl)c2)nc2c1cnn2C1CCC(F)(F)CC1  inhibition at 10 µM           %            98
 4  COc1cncc(-c2ccc(F)cc2Cc2nc3c(cnn3C3CCC(F)(F)CC3)c(=O)[nH]2)c1  inhibition at 10 µM           %           101
 5  Cc1ccn(-c2ccccc2Cc2nc3c(cnn3C3CCC(F)(F)CC3)c(=O)[nH]2)n1  inhibition at 10 µM           %            83
 6  O=c1[nH]c(CC2CC2)nc2c1cnn2C1CCC(F)(F)CC1  inhibition at 10 µM           %           101
 7  O=c1[nH]c(Cc2ccc(F)cc2-c2ccncc2)nc2c1cnn2C1CCC(F)(F)CC1  inhibition at 10 µM           %            97
 8  CC1(C)CC(Cc2nc3c(cnn3C3CCC(F)(F)CC3)c(=O)[nH]2)CO1 (racemic) [Example 52]  inhibition at 10 µM           %            98
 9  O=c1[nH]c(Cc2ccccc2CCCN2CCOCC2)nc2c1cnn2C1CCC(F)(F)CC1  inhibition at 10 µM           %            97
10  CN(C)C(=O)Cc1ccccc1Cc1nc2c(cnn2C2CCC(F)(F)CC2)c(=O)[nH]1  inhibition at 10 µM           %            95
11  CC(Cc1nc2c(cnn2C2CCC(F)(F)CC2)c(=O)[nH]1)C(=O)N1CCCCC1 (stereo not drawn)  inhibition at 10 µM           %            84
12  CCCCc1nc2c(cnn2C2CCC(F)(F)CC2)c(=O)[nH]1  inhibition at 10 µM           %            98
13  COc1ccc(-c2ccc(F)cc2Cc2nc3c(cnn3C3CCC(F)(F)CC3)c(=O)[nH]2)cc1  inhibition at 10 µM           %            99
14  CC1(C)CC(Cc2nc3c(cnn3C3CCC(F)(F)CC3)c(=O)[nH]2)C(=O)O1 (racemic)  inhibition at 10 µM           %            91
15  O=c1[nH]c(Cc2ccccc2-c2ccnc(F)c2)nc2c1cnn2C1CCC(F)(F)CC1  inhibition at 10 µM           %            98
16  COC1CCCCC1n1ncc2c(=O)[nH]c(CC3CC3)nc21 (racemic)  inhibition at 10 µM           %            89
17  O=c1[nH]c(CC2CC2)nc2c1cnn2C1CCCC(c2ccccc2)C1 (mixture of isomers)  inhibition at 10 µM           %            93
18  COc1ccc(-c2cc(F)ccc2Cc2nc3c(cnn3C3CCC(F)(F)CC3)c(=O)[nH]2)cc1  inhibition at 10 µM           %            96
19  O=c1[nH]c(Cc2cc(F)cc(F)c2)nc2c1cnn2C1CCC(F)(F)CC1  inhibition at 10 µM           %            96
20  Cn1cc(-c2ccc(F)cc2Cc2nc3c(cnn3C3CCC(F)(F)CC3)c(=O)[nH]2)cn1  inhibition at 10 µM           %            98
21  O=c1[nH]c(Cc2ccccc2OC(F)(F)F)nc2c1cnn2C1CCC(F)(F)CC1  inhibition at 10 µM           %            94
22  COc1cccc(Cl)c1Cc1nc2c(cnn2C2CCC(F)(F)CC2)c(=O)[nH]1  inhibition at 10 µM           %            97
23  CC(Cc1nc2c(cnn2C2CCC(F)(F)CC2)c(=O)[nH]1)C(F)(F)F (single isomer, unassigned) [Example 47]  inhibition at 10 µM           %            98
24  O=c1[nH]c(Cc2ccccc2-c2ccc(N3CCOCC3)nc2)nc2c1cnn2C1CCC(F)(F)CC1  inhibition at 10 µM           %           101
25  O=c1[nH]c(Cc2ccccc2CCO)nc2c1cnn2C1CCC(F)(F)CC1  inhibition at 10 µM           %            88
26  NC(=O)c1ccc(-c2cc(F)ccc2Cc2nc3c(cnn3C3CCC(F)(F)CC3)c(=O)[nH]2)cn1  inhibition at 10 µM           %           100
27  N#Cc1ccccc1Cc1nc2c(cnn2C2CCC(F)(F)CC2)c(=O)[nH]1  inhibition at 10 µM           %            99
